B1: CPOX (parent)
chain: HAPTIHFNYRYFEVEEADGNKQWW

# Variants of: B1
# Assay Text: protein stability index of a GFP-peptide fusion (GPS, HEK-293T) (PSI 1-6); higher = more stable;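 also: lentivirally expressed fusions sorted by FACS into six bins by GFP to DsRed ratio, PSI derived from sequencing read proportions per bin multiplied by bin number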
# Condition Summary: c terminus: a fixed tail appended
protein stability index by entry:
Format: numeric value only, no unit, no commentary.

E16L: 1.44
I5E: 3.55
A17M: 2.27

get_value(item= "E16T" , readout=protein stability index) returns 2.53

get_value(item= "H1K" , readout=protein stability index) returns 2.37

get_value(item= "W24G" , readout=protein stability index) returns 2.81

get_value(item= "D18R" , readout=protein stability index) returns 2.18

get_value(item= "W24N" , readout=protein stability index) returns 3.06

get_value(item= "E13N" , readout=protein stability index) returns 2.15

get_value(item= "N8E" , readout=protein stability index) returns 2.1

get_value(item= "A17E" , readout=protein stability index) returns 3.01
